Sourced from PubChem BioAssay (EPA / NIEHS)

- run.description: APR_HepG2_MitoMembPot_72hr: Apredica 72-hour HepG2 Assay for Mitochondrial Membrane Potential (AID 2282917)
- condition.summary: imaging, actives raise or lower the signal
The source made the active and inactive calls. How the source made its calls: active means hit-call score of the fitted dose curve at least 0.9, where 1 is the maximum; inactive means score below 0.9.
Please state which outcome applies, choosing from active, inactive

OC1CCC(C2CCCCC2)CC1 (configuration not stated)
inactive
O=C(/C=C/c1ccc(O)cc1)CC(=O)/C=C/c1ccc(O)cc1
inactive
CN1CCN(c2ccccc2/C=C2\SCCN(c3ccc(Cl)c(Cl)c3)C2=O)CC1
inactive

What did this assay record as the result for "CCCCCCCCCCCCCCCS(=O)(=O)Oc1ccccc1" ?
inactive

What did this assay record as the result for CCCCC(CC)COC(=O)CCCCC(=O)OCC(CC)CCCC (configuration not stated) ?
inactive

What did this assay record as the result for "CC[C@H](C)[C@@H](C(=O)O)n1sc2ccccc2c1=O" ?
inactive

What did this assay record as the result for "OCCC(F)(F)C(F)(F)C(F)(F)C(F)(F)C(F)(F)C(F)(F)F" ?
inactive

What did this assay record as the result for "CC(C)CCCCCCOC(=O)CCCCC(=O)OCCCCCCC(C)C" ?
inactive

What did this assay record as the result for "CN1CCC[C@H]1c1cccnc1" ?
inactive

What did this assay record as the result for "CCCCCCCCOC(=O)CCCCCCCCC(=O)OCCCCCCCC" ?
inactive

What did this assay record as the result for N#C[C@@H]1CC(F)(F)CN1C(=O)CNC1CC2CCC(C1)N2c1ncccn1 (some centres not stated) ?
inactive

What did this assay record as the result for "c1ccc2c(c1)Cc1ccccc1-2" ?
inactive

---

- run.description: BSK_3C_Proliferation: Cell Proliferation Assessment in the BioMAP Diversity Plus: 3C Assay (AID 2283006)
- condition.summary: primary human endothelial cells (HUVEC)
The source made the active and inactive calls. How the source made its calls: active means hit-call score of the fitted dose curve at least 0.9, where 1 is the maximum; inactive means score below 0.9.
Please state which outcome applies, choosing from active, inactive

Consider the worked cases shown below.
O=C(O)Cc1cc(I)c(Oc2cc(I)c(O)c(I)c2)c(I)c1
active
CC[C@H](C)[C@@H](C(=O)O)n1sc2ccccc2c1=O
inactive
Oc1cc2ccccc2c2ccccc12
active

What did this assay record as the result for "c1ccc2c(c1)ccc1ccccc12" ?
inactive

What did this assay record as the result for COCC(C)O (stereo not drawn) ?
inactive

What did this assay record as the result for CCCCC(CC)COC(=O)CCCCC(=O)OCC(CC)CCCC (stereo not drawn) ?
inactive

What did this assay record as the result for "CCCCCCCC(=O)O" ?
inactive

What did this assay record as the result for "CCCCCCC(=O)O" ?
inactive

What did this assay record as the result for "CC[C@H](c1ccc(O)cc1)[C@@H](CC)c1ccc(O)cc1" ?
active

---

- run.description: ACEA_AR_antagonist_AUC_viability: ACEA Biosciences xCELLigence Real-Time Cell Analysis on Androgen Receptor Antagonism for Viability (AID 2283776);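 further: 22Rv1 human prostate cancer cells growing on impedance electrode plates; area under impedance growth curve at 80 h after dosing as viability; hits lower the growth signal relative to DMSO meaning cytotoxicity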
Records with an inconclusive call do not appear. Activity calls are given as the source filed them. How the source made its calls: active means hit-call score of the fitted dose curve at least 0.9, where 1 is the maximum; inconclusive means response in the unintended direction; inactive means score below 0.9.
Please state which outcome applies, choosing from active, inactive

Consider the worked cases shown below.
CC1=C(/C=C/C(C)=C/C=C/C(C)=C/C(=O)O)C(C)(C)CCC1
active
CCc1nn(C2CCCCC2)c2cc(C3(C#N)CCC(C(=O)O)CC3)ccc12 (centres undefined)
inactive
COCC(C)O (centres undefined)
inactive

What did this assay record as the result for CCc1ccc(CCOc2ccc(CC3SC(=O)NC3=O)cc2)nc1 (centres undefined) ?
active

What did this assay record as the result for "CCC(=C(c1ccc(O)cc1)c1ccc(OCCN(C)C)cc1)c1ccccc1" ?
active

What did this assay record as the result for "CN1CCN(c2ccccc2/C=C2\SCCN(c3ccc(Cl)c(Cl)c3)C2=O)CC1" ?
active

What did this assay record as the result for "CCCCCCCCCCCCN1CCCC1=O" ?
active

What did this assay record as the result for "CCCCCCCCOC(=O)CCCCCCCCC(=O)OCCCCCCCC" ?
inactive

What did this assay record as the result for "Cc1oc(-c2ccccc2)nc1CCOc1ccc(C[C@H](Nc2ccccc2C(=O)c2ccccc2)C(=O)O)cc1" ?
active

What did this assay record as the result for "C[C@@H]1C[C@H]2[C@@H]3CCC4=CC(=O)C=C[C@]4(C)[C@@]3(F)[C@@H](O)C[C@]2(C)[C@@]1(O)C(=O)COP(=O)(O)O" ?
inactive

What did this assay record as the result for N#C[C@@H]1CC(F)(F)CN1C(=O)CNC1CC2CCC(C1)N2c1ncccn1 (some centres undefined) ?
inactive

What did this assay record as the result for "CC[C@H](c1ccc(O)cc1)[C@@H](CC)c1ccc(O)cc1" ?
active

What did this assay record as the result for "O=c1c(-c2ccc(O)cc2)coc2cc(O)ccc12" ?
inactive

What did this assay record as the result for "Cc1cc(CCN2CCN(c3nsc4ccccc34)CC2)cc2c1NC(=O)CC2(C)C" ?
active

What did this assay record as the result for "COc1cc(CCC(=O)CC(=O)CCc2ccc(O)c(OC)c2)ccc1O" ?
active

What did this assay record as the result for "OCCC(F)(F)C(F)(F)C(F)(F)C(F)(F)C(F)(F)C(F)(F)C(F)(F)C(F)(F)F" ?
inactive

What did this assay record as the result for "c1ccc2c(c1)Cc1ccccc1-2" ?
inactive

What did this assay record as the result for "Cc1ccc(S(=O)(=O)O)c(C)c1" ?
inactive

What did this assay record as the result for "O=[N+]([O-])c1ccc(O)cc1" ?
inactive
